B1: tRNA (parent)
chain: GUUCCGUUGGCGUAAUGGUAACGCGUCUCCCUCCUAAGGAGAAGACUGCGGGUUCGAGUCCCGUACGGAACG

Variants of: B1
Assay Explanation: yeast fitness relative to wild type (ratio to wild type); higher = fitter; tRNA-Arg(CCU), competitive growth, 37 C, YPD
Fewer inactive variants are shown than the library holds.
Each record here notes measured yeast fitness.

>  <Mutation Descriptor>
C5U C24U A40C A45U

>  <Endpoint Label>
yeast fitness

>  <Measured>
≤ 0.5

$$$$
>  <Mutation Descriptor>
U2A C24U A45U G67A

>  <Endpoint Label>
yeast fitness

>  <Measured>
≤ 0.5

$$$$
>  <Mutation Descriptor>
C27A A40C A45U A57U

>  <Endpoint Label>
yeast fitness

>  <Measured>
≤ 0.5

$$$$
>  <Mutation Descriptor>
A20C C55U G67A

>  <Endpoint Label>
yeast fitness

>  <Measured>
0.53

$$$$
>  <Mutation Descriptor>
G10C C33A A45C

>  <Endpoint Label>
yeast fitness

>  <Measured>
0.551

$$$$

Notebook: C4U A21G U28G C60A , yeast fitness read as ≤ 0.5

Record summary for C27G G52A G63A : reported yeast fitness = 0.533

# variant C24A U26A C31A ; its yeast fitness = 0.544

# yeast fitness (variant: U2C U19G A69C ) is 0.543

Measured yeast fitness, G10A U26A A43G A70U : ≤ 0.5
